# reported pIC50; entries follow
# TGT: T1, recombinant human LIGHT-214E, FLAG-tagged extracellular domain (human)
# T1 construct: Trimer; Biotinylated in some assays
# T1 chain: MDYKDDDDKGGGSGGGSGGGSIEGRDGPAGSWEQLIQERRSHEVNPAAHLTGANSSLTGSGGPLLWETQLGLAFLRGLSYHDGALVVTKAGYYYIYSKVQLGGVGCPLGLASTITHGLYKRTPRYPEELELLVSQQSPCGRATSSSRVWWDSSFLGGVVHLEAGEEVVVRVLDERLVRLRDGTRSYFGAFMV
# ASSAY PROTOCOL: HTRF competition, AlexaFluor 647 HVEM-Fc binding to Flag-hLIGHT-214E
Scale: pIC50 equals -log10([C]), with [C] in mol/L.

// below: answered binders
98C07 in human IgG4(PE) format (antibody, V domains shown) VH: QVQLVESGGGLVKPGGSLRLSCAASGFTFSDYYMSWIRQAPGKGLEWVSYISRSSFIYYSESVKGRFTISRDNAKNSLYLQMNSLRAEDTAVYYCARWELSPFDYWGQGTLVTVSS VL: DIQMTQSPSSLSASVGDRVTITCRASQGISNYLAWFQQKPGKAPKSLIYAASSLQSGVPSKFSGSGSGTDFTLTISSLQPEDFATYFCQQYNTYPFTFGPGTKVDIK = 9.09
31A10 in human IgG4(PE) format (antibody, V domains shown) VH: QVQLQESGPGLVKPSGTLSLTCAVSGGSISSINWWNWVRQPPGKGLEWIGEVSHSGITNYNPSLKSRVTMSVDKAKNQFSLKLNSVTAADTAVYYCARERAVADYHGMDVWGQGTTVTVSS VL: AIQLTQSPSSLSASVGDRVTITCRASQGISSALAWFQQKPGKPPKLLIFDASDLESGVSSRFSGSGSGTDFTLTISSLQPGDFATYYCQQFNSYPITFGQGTRLEIK = 8.94

Which pIC50 is reported for this binder? 13H04 in human IgG4(PE) format (antibody, V domains shown) VH: QVQLVQSGAEVKKPGASVKVSCKASGYTFTSYGISWVRQAPGQGLEWMGWISAHNANTNYAQKLQGRVTMTTDTSTSTAYMELRSLRSDDTAMYYCARLYRNWFDPWGQGTLVTVSS VL: QSALTQPASVSGSPGQSITISCTGTSSDVGGYNYVSWYQQHPGKAPKLMIYDVSKRPSGVSNRFSGSKSGNTASLTISGLQAEDEADYYCCSYAGSSTLLFGGGTKLTVL
8.89

Which pIC50 is reported for this binder? 01C02 in human IgG4(PE) format (antibody, V domains shown) VH: QVQLVQSGAEVQKPGASVMVSCKASGYTFTYYGISWVRQAPGQGLEWMGWISANSGNTNYAQKFQGRVTMTTDTSTNTAYMELRSLRTDDTAVYYCAKGGVAVLEYWGQGTLVTVSS VL: DIQLTQSPSFLSASVGDRVTITCWASQGISSYLAWYQQKPGKAPNLLIYVASTLQSGVPSRFSGSGSGTEFTLTISSLQPEDFATYYCQQLKIYPLTFGGGTKVEIK
8.79
